- test target: KDM5A (Homo sapiens, UniProt P29375)
- Construct: C-terminal FLAG-tagged KDM5A^1-1090 was purchased from BPS Biosciences; FLAG (C); purchased BPS Biosciences
- Sequence (P29375 1-1090): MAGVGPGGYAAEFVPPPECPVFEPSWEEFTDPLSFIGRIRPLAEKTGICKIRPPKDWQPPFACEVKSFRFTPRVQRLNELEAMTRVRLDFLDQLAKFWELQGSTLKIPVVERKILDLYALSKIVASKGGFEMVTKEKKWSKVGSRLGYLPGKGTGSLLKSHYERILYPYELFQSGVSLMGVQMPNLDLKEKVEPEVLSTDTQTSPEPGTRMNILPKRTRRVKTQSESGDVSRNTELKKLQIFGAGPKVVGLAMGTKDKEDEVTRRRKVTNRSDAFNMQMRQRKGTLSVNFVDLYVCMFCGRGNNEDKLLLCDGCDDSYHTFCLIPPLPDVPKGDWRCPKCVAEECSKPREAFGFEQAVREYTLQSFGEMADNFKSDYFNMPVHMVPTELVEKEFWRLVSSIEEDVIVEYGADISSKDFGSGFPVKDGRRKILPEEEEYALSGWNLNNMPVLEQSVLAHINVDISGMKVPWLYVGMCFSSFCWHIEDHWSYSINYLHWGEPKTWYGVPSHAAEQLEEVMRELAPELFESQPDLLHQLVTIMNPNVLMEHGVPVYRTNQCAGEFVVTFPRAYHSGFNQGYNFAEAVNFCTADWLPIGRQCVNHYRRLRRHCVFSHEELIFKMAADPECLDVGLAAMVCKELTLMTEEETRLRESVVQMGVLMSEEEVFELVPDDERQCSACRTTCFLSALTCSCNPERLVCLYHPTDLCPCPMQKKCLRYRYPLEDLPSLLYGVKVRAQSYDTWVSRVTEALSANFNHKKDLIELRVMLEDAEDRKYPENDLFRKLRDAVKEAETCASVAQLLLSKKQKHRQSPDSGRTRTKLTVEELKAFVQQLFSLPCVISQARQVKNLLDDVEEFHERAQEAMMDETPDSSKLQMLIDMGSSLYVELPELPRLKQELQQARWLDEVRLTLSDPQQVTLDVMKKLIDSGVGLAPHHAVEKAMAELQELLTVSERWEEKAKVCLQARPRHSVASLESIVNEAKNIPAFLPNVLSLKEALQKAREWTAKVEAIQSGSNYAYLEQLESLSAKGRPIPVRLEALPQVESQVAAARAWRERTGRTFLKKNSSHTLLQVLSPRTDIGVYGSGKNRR
- assay details: KDM5A Assay (SAMDI mass spectrometry demethylase assay)
- Assay type: biochemical
- condition label: C-terminal FLAG-tagged KDM5A 1-1090; class symbols; read-out: 5A IC50
The reader will find reported IC50 values listed item by item below.

Here's what some known entries look like.
| smiles input | IC50 |
| --- | --- |
| Cc1c(Nc2cnccc2C(=O)O)cnn1-c1ccccc1 | 1 to 10 µM |
| Cc1c(Nc2cnccc2C(=O)O)cnn1C1CCNCC1 | 1 to 10 µM |
| Cc1cn(-c2ccccc2)c(Nc2cnccc2C(=O)O)n1 | 1 to 10 µM |

stdin: # input molecule: `Cc1nn(-c2ccccc2)cc1Nc1cnccc1C(=O)O` ; wanted: its IC50
stdout: 0.001 to 0.1 µM

stdin: # input molecule: `Cn1ncc(-c2ccc(F)cc2)c1Nc1cnccc1C(=O)O` ; wanted: its IC50
stdout: 10 to 100 µM

All values here come from patent US20170291890A1.
